A set of compounds tested on mitochondrial RNA-polymerase (POLRMT) (Mus musculus), with measured IC50:
measuredQuantity: IC50

{"compound": "C[C@@H](Oc1ccc2c(-c3ccc(F)cc3Cl)cc(=O)oc2c1)C(=O)Nc1ccc(C(=O)O)cn1", "measuredQuantity": "IC50", "result": "< 20 nM"}
{"compound": "COC(=O)C1CCCN(C(=O)C(C)Oc2ccc3c(-c4ccccc4C)cc(=O)oc3c2)C1 (stereo not shown)", "measuredQuantity": "IC50", "result": "< 20 nM"}
{"compound": "Cc1ccccc1-c1cc(=O)oc2cc(OC(C)C(=O)N(C)C)ccc12 (stereo not shown)", "measuredQuantity": "IC50", "result": "< 20 nM"}
{"compound": "Cc1ccccc1-c1cc(=O)oc2cc(OC(C)C(=O)N3CCCCC3)ccc12 (stereo not shown)", "measuredQuantity": "IC50", "result": "< 20 nM"}
{"compound": "CCCCCCCOC(=O)C[C@H]1CCCN(C(=O)[C@@H](C)Oc2ccc3c(-c4ccc(F)cc4Cl)cc(=O)oc3c2)C1", "measuredQuantity": "IC50", "result": "100 to 1000 nM"}
{"compound": "CC(Oc1ccc2c(-c3ccccc3Cl)cc(=O)oc2c1)C(=O)O (stereo not shown)", "measuredQuantity": "IC50", "result": "100 to 1000 nM"}
{"compound": "CC(Oc1ccc2c(-c3cccc(F)c3Cl)cc(=O)oc2c1)C(=O)NC1CC1 (stereo not shown)", "measuredQuantity": "IC50", "result": "20 to 100 nM"}
{"compound": "CCNC(=O)C(C)Oc1ccc2c(-c3ccccc3Cl)cc(=O)oc2c1 (stereo not shown)", "measuredQuantity": "IC50", "result": "100 to 1000 nM"}
{"compound": "CC(Oc1ccc2c(-c3ccccc3Cl)cc(=O)oc2c1)C(=O)N1CCCC(S(=O)(=O)O)C1 (stereo not shown)", "measuredQuantity": "IC50", "result": "< 20 nM"}
{"compound": "C[C@@H](Oc1ccc2c(-c3c(Cl)cccc3Cl)cc(=O)oc2c1)C(=O)N1CCC[C@H](C(=O)O)C1", "measuredQuantity": "IC50", "result": "100 to 1000 nM"}
{"compound": "COC(=O)C[C@@H]1CCCN(C(=O)[C@@H](C)Oc2ccc3c(-c4ccccc4Cl)cc(=O)oc3c2)C1", "measuredQuantity": "IC50", "result": "< 20 nM"}
{"compound": "CCNC(=O)C(C)Oc1ccc2c(-c3cccc(F)c3Cl)cc(=O)oc2c1 (stereo not shown)", "measuredQuantity": "IC50", "result": "20 to 100 nM"}
{"compound": "CC(C)NC(=O)[C@@H](C)Oc1ccc2c(-c3ccccc3Cl)cc(=O)oc2c1", "measuredQuantity": "IC50", "result": "20 to 100 nM"}
{"compound": "Cc1ccccc1-c1cc(=O)oc2cc(OC(C)C(=O)N3CCCC(C)(C(=O)O)C3)ccc12 (stereo not shown)", "measuredQuantity": "IC50", "result": "< 20 nM"}
{"compound": "Cc1ccccc1-c1cc(=O)oc2cc(OC(C)C(=O)N3CCC(S(N)(=O)=O)C3)ccc12 (stereo not shown)", "measuredQuantity": "IC50", "result": "20 to 100 nM"}
{"compound": "Cc1ccsc1-c1cc(=O)oc2cc(O[C@H](C)C(=O)N(C)C)ccc12", "measuredQuantity": "IC50", "result": "100 to 1000 nM"}
{"compound": "COC(=O)[C@H]1CN(C(=O)[C@@H](C)Oc2ccc3c(-c4ccc(F)cc4Cl)cc(=O)oc3c2)CCN1", "measuredQuantity": "IC50", "result": "20 to 100 nM"}
{"compound": "CCOC(=O)CC1CCCN(C(=O)C(C)Oc2ccc3c(-c4ccccc4C)cc(=O)oc3c2)C1 (stereo not shown)", "measuredQuantity": "IC50", "result": "20 to 100 nM"}
{"compound": "Cc1ccccc1-c1cc(=O)oc2cc(OC(C)C(=O)N3CCC[C@@H](C(=O)O)C3)ccc12 (stereo partly shown)", "measuredQuantity": "IC50", "result": "< 20 nM"}
{"compound": "CC(Oc1ccc2c(-c3ccccc3Cl)cc(=O)oc2c1)C(=O)N1CCCC1 (stereo not shown)", "measuredQuantity": "IC50", "result": "< 20 nM"}
{"compound": "C[C@@H](Oc1ccc2c(-c3ccc(F)cc3Cl)cc(=O)oc2c1)C(=O)N1CCC[C@@H](C(=O)O)C1", "measuredQuantity": "IC50", "result": "< 20 nM"}
{"compound": "CCOC(=O)C[C@H]1CCCN(C(=O)[C@@H](C)Oc2ccc3c(-c4sccc4C)cc(=O)oc3c2)C1", "measuredQuantity": "IC50", "result": "20 to 100 nM"}
{"compound": "CC(Oc1ccc2c(-c3ccc(F)cc3Cl)cc(=O)oc2c1)C(=O)N1CCC[C@H](C(=O)O)C1 (stereo partly shown)", "measuredQuantity": "IC50", "result": "< 20 nM"}
{"compound": "C[C@@H](Oc1ccc2c(-c3ccccc3Cl)cc(=O)oc2c1)C(=O)N1CCC[C@@H](CC(=O)O)C1", "measuredQuantity": "IC50", "result": "< 20 nM"}
{"compound": "CCOC(=O)[C@H]1CCCN(C(=O)[C@@H](C)Oc2ccc3c(-c4ccc(F)cc4Cl)cc(=O)oc3c2)C1", "measuredQuantity": "IC50", "result": "20 to 100 nM"}
{"compound": "Cc1cscc1-c1cc(=O)oc2cc(O[C@H](C)C(=O)N3CCC[C@H](C(=O)O)C3)ccc12", "measuredQuantity": "IC50", "result": "< 20 nM"}
{"compound": "Cc1ccccc1-c1cc(=O)oc2cc(OC(C)C(=O)N3CCC[C@H](C(=O)N(C)C)C3)ccc12 (stereo partly shown)", "measuredQuantity": "IC50", "result": "20 to 100 nM"}
{"compound": "C[C@@H](Oc1ccc2c(-c3ccc(F)cc3Cl)cc(=O)oc2n1)C(=O)N1CCC[C@H](C(=O)O)C1", "measuredQuantity": "IC50", "result": "20 to 100 nM"}
{"compound": "Cc1ccccc1-c1cc(=O)oc2cc(O[C@H](C)C(=O)N3CCC[C@H](C(=O)O)C3)ccc12", "measuredQuantity": "IC50", "result": "< 20 nM"}
{"compound": "CCOC(=O)C(C)Oc1ccc2c(-c3ccccc3Br)cc(=O)oc2c1 (stereo not shown)", "measuredQuantity": "IC50", "result": "20 to 100 nM"}
{"compound": "COC(=O)[C@@H]1CN(C(=O)[C@@H](C)Oc2ccc3c(-c4ccc(F)cc4Cl)cc(=O)oc3c2)CCN1", "measuredQuantity": "IC50", "result": "100 to 1000 nM"}
